- PROTOCOL NOTES: PK profile of compound 15 after oral 30 mg/kg, single dose study
- Format: in vivo, mice
- ASSAY CONTEXT: female, athymic nude (CD-1 nu/nu), mouse, plasma
MEASUREMENT KIND: Tmax (h)
Give the quantity in h, number only.

## Task What value of Tmax has been reported for the following compound? CN(C)c1cc2c(cc1Sc1nc3c(N)nccc3n1CCNCC(C)(C)C)OCO2
## Result 2

###

- PROTOCOL NOTES: Mouse brain concentrations after oral 30 mg/Kg in nude mice with U87MG xenografts
- Type: in vivo
- ASSAY CONTEXT: female, athymic nude (CD-1 nu/nu), mouse, brain; oral (30 mg/Kg) delivery, U87MG xenografts, Time 3 hr; read-out: HSP90 Compounds in Mouse Brain
MEASUREMENT KIND: concentration at 3 hr (ng/g)
Expressed in ng/g, but write only the number.

Solved entries:
STRUCTURE AS SMILES	REPORTED
CN(C)c1cc2c(cc1Sc1nc3c(N)nccc3n1CCNCC(C)(C)C)OCO2	257
NC(=O)CCCn1c(Sc2cc3c(cc2I)OCO3)nc2c(N)nccc21	3.7

Okay, now this compound:
## Task // returns reported concentration at 3 hr for input CC(C)(C)CNCCn1c(Sc2cc3c(cc2S(C)(=O)=O)OCO3)nc2c(N)nccc21
## Result 21.5

###

# concentration at 1 hr listing for each entry below
- PROTOCOL NOTES: Mouse brain concentrations after oral 30 mg/Kg in nude mice with U87MG xenografts
- Format: in vivo
- ASSAY CONTEXT: female, athymic nude (CD-1 nu/nu), mouse, brain; oral (30 mg/Kg) delivery, U87MG xenografts, Time 1 hr; read-out: HSP90 Compounds in Mouse Brain

STRUCTURE AS SMILES	REPORTED
CN(C)c1cc2c(cc1Sc1nc3c(N)nccc3n1CCNCC(C)(C)C)OCO2	124 ng/g
CC(C)(C)CNCCn1c(Sc2cc3c(cc2S(C)(=O)=O)OCO3)nc2c(N)nccc21	13.6 ng/g

# next compound below
## Task Looking for the measured concentration at 1 hr of NC(=O)CCCn1c(Sc2cc3c(cc2I)OCO3)nc2c(N)nccc21 , can you help?
## Result 2.2 ng/g

###

- PROTOCOL NOTES: PK in mouse brain after i.v. and oral delivery, cassette study in HCT116 tumor-bearing mice
- Type: in vivo
- ASSAY CONTEXT: female, athymic nude (CD-1 nu/nu), mouse, oral delivery (10 mg/g Cassette Study), Time 0.5 hr, read-out: HSP90 Compounds in Mouse Brain
MEASUREMENT KIND: concentration at 0.5 hr (ng/g)
Numbers only here, please. The scale is ng/g.

## Task Quick check: concentration at 0.5 hr of CN(C)c1cc2c(cc1Sc1nc3c(N)nccc3n1CCNCC(C)(C)C)OCO2 ?
## Result 61.2

###

- PROTOCOL NOTES: PK in mouse brain after i.v. and oral delivery, cassette study in HCT116 tumor-bearing mice
- Format: in vivo
- ASSAY CONTEXT: female, athymic nude (CD-1 nu/nu), mouse, oral delivery (10 mg/g Cassette Study), Time 6 hr, read-out: HSP90 Compounds in Mouse Brain
MEASUREMENT KIND: concentration at 6 hr (ng/g)
Write it as a number; the unit ng/g goes unstated.

## Task Quick one: concentration at 6 hr of CN(C)c1cc2c(cc1Sc1nc3c(N)nccc3n1CCNCC(C)(C)C)OCO2 [Compound 15] ?
## Result 218
